Reference source: the supplement of paper PMC10567573

Some sequences, each annotated with its measured protein stability index.
PROTOCOL_NOTES: protein stability index of a GFP-peptide fusion (GPS, HEK-293T) (PSI 1-6); higher = more stable;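 also: 24-mer peptide tiles fused after GFP, lentivirally expressed, FACS-sorted into six equal bins by GFP/DsRed ratio, decoded by Illumina sequencing, PSI is the read-weighted mean bin number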
CONDITION_LABEL: treatment: MLN4924 1 uM, 8 h; c terminus: a fixed tail appended
QUANTITY_NAME: protein stability index

* SLQLVFGIELMEVDPIGHVYIFAT [MAGEA6] | 3
* NFLTQRENTIAGANHTHTFYGHSH [C10orf62] | 3.09
* RKHIIEGLKASLERLQLEYVDVVF [KCNAB2] | 3
* DYEKMFGTKCHGCDFKIDAGDRFL [PDLIM7] | 2.96
